Biological target: 5-hydroxytryptamine receptor 6 (Homo sapiens)
Sequence (P50406 whole entry): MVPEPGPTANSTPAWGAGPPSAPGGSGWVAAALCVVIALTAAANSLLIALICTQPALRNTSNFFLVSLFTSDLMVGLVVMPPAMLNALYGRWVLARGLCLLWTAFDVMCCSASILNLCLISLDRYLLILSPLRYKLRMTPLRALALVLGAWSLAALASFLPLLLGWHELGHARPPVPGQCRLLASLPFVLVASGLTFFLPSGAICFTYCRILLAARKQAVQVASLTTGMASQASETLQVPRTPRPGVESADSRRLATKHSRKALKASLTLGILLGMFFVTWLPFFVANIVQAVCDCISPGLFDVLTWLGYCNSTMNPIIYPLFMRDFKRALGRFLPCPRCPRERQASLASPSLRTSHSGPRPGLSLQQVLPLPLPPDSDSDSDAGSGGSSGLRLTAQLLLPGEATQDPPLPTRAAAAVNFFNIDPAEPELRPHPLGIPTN
Experiment: Binding affinity to human recombinant 5HT6 receptor expressed in HEK293 cells by radioligand displacement assay
pKi: −log10 of the molar value.
MEASUREMENT_LABEL: pKi

- COMPOUND: "CC(Nc1nc2c(S(=O)(=O)c3ccccc3)nnn2c2ccsc12)C12CC3CC(CC(C3)C1)C2 (stereo not given)"
  pKi: 6.99

[P] Cc1ccc(C)c(S(=O)(=O)c2nnn3c2nc(N)c2sccc23)c1
[Q] O=S(=O)(c1ccccc1)c1nnn2c1nc(NCc1cccs1)c1sccc12
QUERY: From the recorded data, which exceeds the other in pKi: P or Q ? Provide the label of your selected option as the answer.
RESULT: Q

[1] O=S(=O)(c1ccccc1)c1nnn2c1nc(NC1CCCC1)c1sccc12
[2] CN(Cc1ccccc1)c1nc2c(S(=O)(=O)c3cccc(Cl)c3)nnn2c2ccsc12
QUERY: Please choose the item with the lower pKi value from this pair: 1 and 2 Provide the label of your selected option as the answer.
RESULT: 1
